List of Kd values.
Target: VEGFR2 (KDR) extracellular domain/Fc (Homo sapiens, UniProt P35968 P35968:20-764)
Sequence (P35968 20-764, one chain of several): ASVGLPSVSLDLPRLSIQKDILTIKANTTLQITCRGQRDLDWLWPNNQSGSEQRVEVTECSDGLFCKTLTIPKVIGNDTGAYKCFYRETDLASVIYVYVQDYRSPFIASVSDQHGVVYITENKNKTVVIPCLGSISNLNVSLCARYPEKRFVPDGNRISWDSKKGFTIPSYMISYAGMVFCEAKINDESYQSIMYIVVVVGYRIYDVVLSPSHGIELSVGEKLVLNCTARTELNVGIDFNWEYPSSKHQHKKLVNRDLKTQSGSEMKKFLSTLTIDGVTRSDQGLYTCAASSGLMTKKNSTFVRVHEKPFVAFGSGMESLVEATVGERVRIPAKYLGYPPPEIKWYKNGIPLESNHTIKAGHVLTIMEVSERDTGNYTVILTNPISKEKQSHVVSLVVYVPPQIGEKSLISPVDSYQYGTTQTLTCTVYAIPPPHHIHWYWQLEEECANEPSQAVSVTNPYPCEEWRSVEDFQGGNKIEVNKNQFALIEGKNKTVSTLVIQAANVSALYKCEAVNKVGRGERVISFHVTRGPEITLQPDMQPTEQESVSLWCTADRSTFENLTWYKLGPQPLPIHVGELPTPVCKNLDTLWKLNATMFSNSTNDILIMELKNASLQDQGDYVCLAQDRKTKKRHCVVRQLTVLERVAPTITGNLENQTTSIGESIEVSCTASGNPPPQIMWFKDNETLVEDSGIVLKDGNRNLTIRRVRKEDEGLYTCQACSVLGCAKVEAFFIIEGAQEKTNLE
Assay: filter
Details: tags: C-terminal human IgG1 Fc fusion with Factor Xa site and His6; R&D Systems; NSO mouse myeloma cells; chain copies: 2 (stated, disulfide-linked homodimer)

Example results:
Which Kd value is on record for K12 (ssRNA, 2'-F pyrimidines) RNA: GGGAGGACGAUGCGGAAACGGAAGAAUUGGAGACCGACGUCGACCUCUUGGCCCCAGACGACUCGCCCGA ? 15.4 nM

Which Kd value is on record for K11 (ssRNA, 2'-F pyrimidines) RNA: GGGAGGACGAUGCGGUUGAUCGAGGUUCUAAAGCCUAUUUCCUGACUUUCUCCCCCAGACGACUCGCCCGA ? 0.61 nM

Which Kd value is on record for K1 (ssRNA, 2'-F pyrimidines) RNA: GGGAGGACGAUGCGGGGCCUGUUUGGAUCAUACCGAUCGUCAAUCCAAGAGUGGUCAGACGACUCGCCCGA ? 0.07 nM

Which Kd value is on record for K2 (ssRNA, 2'-F pyrimidines) RNA: GGGAGGACGAUGCGGGGCCUGUUUGGAUCAUACCGAUCGUCAAUCCUAAAGUGGUCAGACGACUCGCCCGA ? 0.27 nM

Which Kd value is on record for K7 (ssRNA, 2'-F pyrimidines) RNA: GGGAGGACGAUGCGGACGAUAACACAGGGCCUGCUUGGAUCACACUGAUUGCGCCCAGACGACUCGCCCGA ? 0.46 nM

Others:
Which Kd value is on record for K4 (ssRNA, 2'-F pyrimidines) RNA: GGGAGGACGAUGCGGAGGUGCUCCUUUGGAACUUCGUAUUUGUCUGCUCCUGGUCAGACGACUCGCCCGA ? 0.28 nM

Which Kd value is on record for K10 (ssRNA, 2'-F pyrimidines) RNA: GGGAGGACGAUGCGGUUGAUCGAGGUUCUAAGGCCUAUUUCCUGACUUUCUCCCCCAGACGACUCGCCCGA ? 0.47 nM

Which Kd value is on record for K5 (ssRNA, 2'-F pyrimidines) RNA: GGGAGGACGAUGCGGCAUGGGGCCUGACUGGAUCAUACCACCGCUUCCUCUGGUCAGACGACUCGCCCGA ? 0.44 nM
